- EXPERIMENT NOTES: Plasma concentration in Plasmodium berghei infected mouse at 50 mg/kg, po dosed once daily for 4 days on 4, 24, 48 and 72 hrs post infection and measured 24 hrs post dose by HPLC-MS/MS method
- Format: ADME, organism-based
- Set-up: dose 50 mg/kg, route oral
Overview of reported concentration at 24 h across a group of compounds:
OBSERVED PROPERTY: concentration at 24 h (ng/mL)

>>> print(df.to_string())
                                   compound      observed_property  result_units  relation_sign  observed
0  N/C(CC(O)c1cc2ccccc2c2ccccc12)=N\N=C\c1ccc(F)cc1 (configuration not stated)  concentration at 24 h         ng/mL              =      86.1
1  N/C(CC(O)c1cccc2ccccc12)=N\N=C\c1ccc(F)cc1 (configuration not stated)  concentration at 24 h         ng/mL              <         5

---

Overview of reported log10 of IC50 across a group of compounds:
- System: L6
- EXPERIMENT NOTES: Cytotoxicity against rat L6 cells after 72 hrs by alamar blue assay
- Format: cell-based
- CONDITION INFO: L6, 72 h
OBSERVED PROPERTY: log10 of IC50 (log10 of the value in µM)

In [3]: df
Out[3]:
                                    compound  observed_property  observed
 0  N/C(CC(O)c1cccc2ccccc12)=N\N=C\c1ccc(F)cc1 (configuration not stated)      log10 of IC50      1.28
 1  N/C(CC(O)c1cc2ccccc2c2ccccc12)=N\N=C\c1ccc(F)cc1 (configuration not stated)      log10 of IC50      1.20
 2  CCOc1cc(/C=N/N=C(\N)CC(O)c2cccc3ccccc23)ccc1O (configuration not stated)      log10 of IC50      0.62
 3  Cc1ccc(/C=N/N=C(\N)CC(O)c2cccc3ccccc23)cc1 (configuration not stated)      log10 of IC50      0.83
 4  O[C@@H](c1cc(C(F)(F)F)nc2c(C(F)(F)F)cccc12)[C@H]1CCCCN1 (relative stereo) [(S,R)-MEFLOQUINE]      log10 of IC50      0.65
 5  N/C(CC(O)c1cccc2ccccc12)=N\N=C\c1ccc(F)cc1F (configuration not stated)      log10 of IC50      0.62
 6  COc1ccc(/C=N/N=C(\N)CC(O)c2ccc3ccccc3c2)cc1 (configuration not stated)      log10 of IC50      1.84
 7  N/C(CC(O)c1cccc2ccccc12)=N\N=C\c1cccc(Br)c1 (configuration not stated)      log10 of IC50      0.59
 8  N/C(CC(O)c1cccc2ccccc12)=N\N=C\c1ccccc1 (configuration not stated)      log10 of IC50      1.23
 9  CCC/C(=N\N=C(/N)CC(O)c1cccc2ccccc12)c1ccccc1 (configuration not stated)      log10 of IC50      1.46
10  COc1cc([C@@H]2c3cc4c(cc3[C@H](O)[C@H]3COC(=O)[C@H]23)OCO4)cc(OC)c1OC      log10 of IC50     -2.01
11  N/C(CC(O)c1ccc2ccccc2c1)=N\N=C\c1ccc(F)cc1F (configuration not stated)      log10 of IC50      1.97
12  N/C(CC(O)c1cccc2ccccc12)=N\N=C\c1cccnc1 (configuration not stated)      log10 of IC50      1.34
13  CCOc1cc(/C=N/N=C(\N)CC(O)c2ccc3ccccc3c2)ccc1O (configuration not stated)      log10 of IC50      1.89
14  N/C(CC(O)c1cccc2ccccc12)=N\N=C\c1ccc(F)c(F)c1 (configuration not stated)      log10 of IC50      1.23
15  COc1ccc(/C=N/N=C(\N)CC(O)c2cccc3ccccc23)cc1 (configuration not stated)      log10 of IC50      0.80
16  N/C(CC(O)c1cccc2ccccc12)=N\N=C\c1ccc(Cl)c(Cl)c1 (configuration not stated)      log10 of IC50      1.20
17  N/C(CC(O)c1cccc2ccccc12)=N\N=C\c1ccc(C(F)(F)F)cc1 (configuration not stated)      log10 of IC50      1.41
18  N/C(=N\N=C\c1ccccc1)C(O)c1cccc2ccccc12 (configuration not stated)      log10 of IC50      2.48
19  N/C(CC(O)c1cc2ccccc2c2ccccc12)=N\N=C\c1ccccc1 (configuration not stated)      log10 of IC50      0.79
20  C/C(=N\N=C(/N)CC(O)c1cccc2ccccc12)c1ccc(F)cc1 (configuration not stated)      log10 of IC50      1.53
